I'd appreciate it if you could supply inhibition at 100 µM values for the items below.
TEST_TARGET: COX1 (Prostaglandin G/H synthase 1) (Ovis aries)
Sequence (P05979 whole entry): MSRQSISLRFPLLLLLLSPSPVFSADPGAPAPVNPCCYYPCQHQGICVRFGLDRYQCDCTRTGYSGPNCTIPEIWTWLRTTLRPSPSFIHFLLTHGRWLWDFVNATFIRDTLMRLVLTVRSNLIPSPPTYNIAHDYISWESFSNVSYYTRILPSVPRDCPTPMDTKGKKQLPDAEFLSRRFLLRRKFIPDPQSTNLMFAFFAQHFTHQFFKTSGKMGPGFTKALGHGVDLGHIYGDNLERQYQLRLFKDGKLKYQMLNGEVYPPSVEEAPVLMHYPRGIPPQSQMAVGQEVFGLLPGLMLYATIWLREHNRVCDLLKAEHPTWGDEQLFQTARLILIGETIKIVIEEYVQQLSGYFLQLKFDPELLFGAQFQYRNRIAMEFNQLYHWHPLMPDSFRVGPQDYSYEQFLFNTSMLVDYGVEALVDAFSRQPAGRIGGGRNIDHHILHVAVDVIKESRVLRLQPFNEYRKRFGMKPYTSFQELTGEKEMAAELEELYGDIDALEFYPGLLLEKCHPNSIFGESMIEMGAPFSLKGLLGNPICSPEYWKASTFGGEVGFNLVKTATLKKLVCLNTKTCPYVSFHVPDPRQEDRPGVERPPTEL
METHOD_NOTES: Inhibition of ovine COX1 assessed as reduction in PGF2alpha level at 100 uM using arachidonic acid as substrate preincubated for 10 mins followed by substrate addition by ELISA relative to control
DETAILS: sheep, ovine COX1 enzyme, probe arachidonic acid
Give bare numbers, in %.

Worked set:
# MOLECULE, inhibition at 100 µM [%]
data = [
    ("COC(=O)COc1ccc(/C=C/c2ccc([N+](=O)[O-])cc2)cc1", 59.6),
    ("Oc1ccc(/C=C/c2ccc(O)cc2)cc1 [TRANS-4,4'-DIHYDROXYSTILBENE]", 4.92),
    ("CCOc1ccc(/C=C/c2ccc(Cl)cc2)cc1", 39.2),
    ("CCOc1ccc(/C=C/c2ccc([N+](=O)[O-])cc2)cc1", 54.6),
    ("O=[N+]([O-])c1ccc(/C=C/c2ccccc2)cc1", 16.3),
    ("CC(=O)Oc1ccc(/C=C/c2ccccc2)cc1", 20.5),
    ("COC(=O)COc1ccc(/C=C/c2ccc(OCC(=O)OC)cc2)cc1", 28.5),
    ("CC(=O)Oc1ccc(/C=C/c2ccc(OC(C)=O)cc2)cc1", 3.16),
    ("CCOc1cccc(/C=C/c2ccc([N+](=O)[O-])cc2)c1", 2.42),
    ("O=[N+]([O-])c1ccc(/C=C/c2ccc(O)cc2)c([N+](=O)[O-])c1", 6.09),
]

For every item below, please supply its inhibition at 100 µM.
1. CC(=O)Oc1cccc(/C=C/c2ccc([N+](=O)[O-])cc2[N+](=O)[O-])c1
2. Oc1cccc(/C=C/c2ccncc2)c1
3. Oc1ccc(/C=C/c2ccc(Cl)cc2)cc1

28.3
23.1
9.64

For every item below, please supply its inhibition at 100 µM.
1. COC(=O)COc1ccc(/C=C/c2ccc(Cl)cc2)cc1
2. Oc1ccccc1/C=C/c1ccncc1

1. 59.3
2. 9.71

For every item below, please supply its inhibition at 100 µM.
1. CCOc1ccc(/C=C/c2ccccc2)cc1
2. Oc1ccc(/C=C/c2cc[n+](Cc3ccc(Cl)cc3)cc2)cc1
3. Oc1ccc(/C=C/c2ccncc2)cc1
4. Oc1ccc(/C=C/c2ccc(Br)cc2)cc1
5. O=[N+]([O-])c1ccc(/C=C/c2ccc(O)cc2)cc1
6. Oc1ccc(/C=C/c2cc[n+](Cc3ccccc3Cl)cc2)cc1

1. 32.3
2. 15.7
3. 17.3
4. 6.8
5. 22.2
6. 1.57

Determine its reported inhibition at 100 µM: CCOc1ccc(/C=C/c2ccc([N+](=O)[O-])cc2[N+](=O)[O-])cc1
14.1

The values you see were collected from ChEMBL document CHEMBL4177711.
